Hello, the source for this data is the supplement of paper PMC12645437, in case you need it.

Readings of log2 fold change of degron read counts for the listed sequences
# target or system: T1, CRBN, Q96SW2;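 further: pooled lentiviral library of zinc finger degron-EGFP fusions in mCherry-positive Jurkat cells, FACS-sorted after compound exposure, with degron abundance counted by next-generation sequencing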
# T1 chain: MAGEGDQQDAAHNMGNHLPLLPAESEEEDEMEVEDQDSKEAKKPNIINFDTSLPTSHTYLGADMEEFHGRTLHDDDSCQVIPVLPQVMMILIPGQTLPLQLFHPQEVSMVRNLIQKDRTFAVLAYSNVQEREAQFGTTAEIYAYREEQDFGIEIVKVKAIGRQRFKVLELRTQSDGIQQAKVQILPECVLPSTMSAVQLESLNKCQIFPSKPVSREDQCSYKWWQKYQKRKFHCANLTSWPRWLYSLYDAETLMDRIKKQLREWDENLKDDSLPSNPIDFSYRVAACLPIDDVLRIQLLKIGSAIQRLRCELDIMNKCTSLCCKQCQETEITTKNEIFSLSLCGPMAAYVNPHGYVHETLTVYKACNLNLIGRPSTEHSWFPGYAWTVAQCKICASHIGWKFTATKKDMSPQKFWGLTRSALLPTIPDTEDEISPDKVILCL
# experiment description: log2 fold change of degron read counts, EGFP-low vs EGFP+ sorted cells (limma voom), compound-induced degradation; higher = more compound-induced degradation of the degron-EGFP fusion; degrons are variants of IKZF1/3 zinc finger 2; compound dose not given here
# setup conditions: Jurkat; 18 h; compound: compound 19 (5-tert-butyl-thalidomide)
Whole data set: some 8,300 sequences, median “log2 fold change of degron read counts, EGFP-low vs EGFP+ sorted cells (limma voom), compound-induced degradation” near -1.1, cut for the highest 2% near 3.2. The sample holds the highest values, similar sequences and a random draw of the others, so the mix is not that of the screen.
Give the figure by itself; no unit, no explanation.

| sequence record | test value |
| --- | --- |
| FNCEQCGAGFTQKGNLLRHIKL [46F_47N_49E_50Q_52G_53A_54G_55F_67L_, Q9UKT9] | -0.14 |

### Prompt Item under review: FFCEICGAGFTQKGNLLRHIKL [46F_47F_49E_50I_52G_53A_54G_55F_67L_, Q9UKT9] . Reported log2 fold change of degron read counts?
### Response 3.51

### Prompt Item under review: FYCDICGAVFTQKGNLLRHIKL [46F_47Y_49D_50I_52G_53A_54V_55F_67L_, Q9UKT9] . Reported log2 fold change of degron read counts?
### Response 2.92

### Prompt Item under review: FCCEICGHIFTQKGNLLRHIKL [46F_47C_49E_50I_52G_53H_54I_55F_67L_, Q9UKT9] . Reported log2 fold change of degron read counts?
### Response -2.19

### Prompt Item under review: FFCDICGALFTQKGNLLRHIKL [46F_47F_49D_50I_52G_53A_54L_55F_67L_, Q9UKT9] . Reported log2 fold change of degron read counts?
### Response 2.27

### Prompt Item under review: FICEICGAGFTQKGNLLRHIKL [46F_47I_49E_50I_52G_53A_54G_55F_67L_, Q9UKT9] . Reported log2 fold change of degron read counts?
### Response 0.51

### Prompt Item under review: FACEICGAGFTQKGNLLRHIKL [46F_47A_49E_50I_52G_53A_54G_55F_67L_, Q9UKT9] . Reported log2 fold change of degron read counts?
### Response 3.75
